Molecular target: c-kit (Homo sapiens)
Construct: human Mo7e cells which endogenously express c-kit; endogenous in cells; host or cells: human Mo7e cells (promegakaryocytic leukemia line), stimulated with human recombinant SCF
Experiment: Mo7e cell proliferation assay (SCF dependent proliferation)
Format: cell-based
Details: Table 1; Mo7e cells stimulated with human recombinant SCF, 48 hours; 1% FBS
Hi! Could you tag entries with IC50 below 60 nM as fulfilled, and those at or above as not fulfilled? Much appreciated.

Determine if `Cc1ccc(Nc2noc(-c3cccc(N4CCOCC4)c3)n2)cc1NC(=O)c1cnc2ccccn12` shows IC50 strictly lower than 60 nM.
fulfilled

In the record for `Cc1ccc(Nc2noc(-c3ccccn3)n2)cc1NC(=O)c1cnc2ccccn12` , is IC50 less than 60 nM?
fulfilled

Item `Cc1ccc(Nc2noc(-c3ccccc3)n2)cc1NC(=O)c1cnc2ccccn12` : IC50 beneath 60 nM, strictly?
fulfilled

Dear colleague, could you confirm whether IC50 of `Cc1ccc(Nc2noc(-c3cscn3)n2)cc1NC(=O)c1cnc2ccccn12` falls below 60 nM? Thanks.
fulfilled

Check if IC50 falls below 60 nM for `Cc1ccc(Nc2noc(-c3cnccn3)n2)cc1NC(=O)c1cnc2ccccn12` .
fulfilled

Is IC50 of `Cc1ccc(-c2nc(Nc3ccccc3)no2)cc1NC(=O)c1cnc2ccccn12` strictly below 60 nM?
fulfilled

Record `Cc1ccc(Nc2noc(-c3cccc(N4CCN(C)CC4)c3)n2)cc1NC(=O)c1cnc2ccccn12` : is its IC50 strictly below 60 nM?
not fulfilled

Bench note: check whether `Cc1ccc(-c2noc(-c3ccccn3)n2)cc1NC(=O)c1cnc2ccccn12` shows IC50 below 60 nM
not fulfilled

Consider the compound `Cc1ccc(-c2nc(-c3cccc(OC(F)(F)F)c3)no2)cc1NC(=O)c1cnc2ccccn12` . Is its IC50 strictly less than 60 nM?
not fulfilled

----------
Target: c-kit (Homo sapiens, UniProt P10721)
Construct: human Mo7e cells which endogenously express c-kit; endogenous in cells; host or cells: human Mo7e cells (promegakaryocytic leukemia line), stimulated with human recombinant SCF
Sequence (P10721 26-976): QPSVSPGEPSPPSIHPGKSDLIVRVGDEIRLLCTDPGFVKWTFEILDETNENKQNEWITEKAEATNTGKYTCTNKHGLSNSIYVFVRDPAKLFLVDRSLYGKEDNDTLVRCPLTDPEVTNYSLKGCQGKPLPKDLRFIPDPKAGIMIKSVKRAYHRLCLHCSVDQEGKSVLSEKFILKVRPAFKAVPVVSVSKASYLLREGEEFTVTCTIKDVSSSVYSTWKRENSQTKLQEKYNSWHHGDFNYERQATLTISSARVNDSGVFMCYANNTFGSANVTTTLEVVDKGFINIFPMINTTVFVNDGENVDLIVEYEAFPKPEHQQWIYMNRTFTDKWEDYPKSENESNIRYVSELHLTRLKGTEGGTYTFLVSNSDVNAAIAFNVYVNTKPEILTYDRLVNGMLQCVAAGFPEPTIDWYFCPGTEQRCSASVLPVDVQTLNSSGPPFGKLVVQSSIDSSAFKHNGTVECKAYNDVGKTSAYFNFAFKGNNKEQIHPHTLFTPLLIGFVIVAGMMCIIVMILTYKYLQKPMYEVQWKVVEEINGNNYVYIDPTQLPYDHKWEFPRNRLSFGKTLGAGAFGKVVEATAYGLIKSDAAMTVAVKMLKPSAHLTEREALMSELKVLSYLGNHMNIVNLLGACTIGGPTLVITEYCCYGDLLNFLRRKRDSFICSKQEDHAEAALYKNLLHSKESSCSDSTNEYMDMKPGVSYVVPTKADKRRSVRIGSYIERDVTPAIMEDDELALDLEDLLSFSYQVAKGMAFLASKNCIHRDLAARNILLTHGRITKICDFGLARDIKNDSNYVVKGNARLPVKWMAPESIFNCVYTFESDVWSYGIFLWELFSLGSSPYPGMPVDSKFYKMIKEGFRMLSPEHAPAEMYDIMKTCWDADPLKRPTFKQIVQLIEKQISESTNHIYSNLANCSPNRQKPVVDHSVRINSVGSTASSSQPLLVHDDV
Assay: Mo7e cell proliferation assay (SCF dependent proliferation)
Type: cell-based
Conditions: Table 2; Mo7e cells stimulated with human recombinant SCF, 48 hours; 1% FBS
Please respond with reported pIC50 for every item in the list.
Notebook: values listed as pIC50 are -log10 of the concentration (mol/L).

If you can, please state the reported pIC50 value of `Cc1ccc(-c2noc(-c3ccccc3N3CCN(C)CC3)n2)cc1NC(=O)c1cnc2ccccn12` .
6.36

Item `Cc1ccc(-c2noc(CCc3nccn3C)n2)cc1NC(=O)c1cnc2ccccn12` has what recorded pIC50?
6.47

Which measured pIC50 value corresponds to `Cc1ccc(-c2noc(CCn3ccnc3)n2)cc1NC(=O)c1cnc2ccccn12` ?
6.47

What does the data say about its pIC50? Entry: `Cc1ccc(-c2noc(-c3ccc(N4CCN(C)CC4)cc3)n2)cc1NC(=O)c1cnc2ccccn12`
6.43

I would be grateful if you could share the reported pIC50 for `Cc1ccc(-c2nc(-c3ccccc3)no2)cc1NC(=O)c1cnc2ccccn12` .
7.00

Request the reported pIC50 associated with `Cc1cccc(-c2noc(-c3ccc(C)c(NC(=O)c4cnc5ccccn45)c3)n2)n1`
6.60

Would you mind telling me what pIC50 value was observed for `Cc1ccc(-c2nc(-c3ccccn3)no2)cc1NC(=O)c1cnc2ccccn12` ?
6.86

Please report the recorded pIC50 for `Cc1ccc(-c2noc(-c3nccn3C)n2)cc1NC(=O)c1cnc2ccccn12` .
6.63

For the compound `Cc1ccc(-c2noc(Cn3ccnc3C)n2)cc1NC(=O)c1cnc2ccccn12` , what pIC50 is on record?
6.35

Please report the recorded pIC50 for `Cc1ccc(-c2noc(-c3ccc(N4CCOCC4)cc3)n2)cc1NC(=O)c1cnc2ccccn12` .
5.97

For `Cc1ccc(-c2noc(-c3cccc(N4CCN(C)CC4)c3)n2)cc1NC(=O)c1cnc2ccccn12` , what is its reported pIC50?
7.00

Item `Cc1ccc(-c2noc(Cn3cnnn3)n2)cc1NC(=O)c1cnc2ccccn12` has what recorded pIC50?
6.19

For the compound `Cc1ccc(-c2noc(-c3ccccn3)n2)cc1NC(=O)c1cnc2ccccn12` , what pIC50 is on record?
6.98

----------
Kindly supply the reported IC50 values for the records listed here.
Target: c-kit (Homo sapiens, UniProt P10721)
Construct: human Mo7e cells which endogenously express c-kit; endogenous in cells; host or cells: human Mo7e cells (promegakaryocytic leukemia line), stimulated with human recombinant SCF
Test: Mo7e cell proliferation assay (SCF dependent proliferation)
Type: cell-based
Details: Table 2; Mo7e cells stimulated with human recombinant SCF, 48 hours; 1% FBS

Entry `Cc1ccc(-c2nc(-c3ccc(F)cc3)no2)cc1NC(=O)c1cnc2ccccn12` : reported IC50 = ?
> 10 µM

Fill in: IC50 of `Cc1ccc(-c2nc(-c3ccncc3)no2)cc1NC(=O)c1cnc2ccccn12` is ___
> 10 µM

What value of IC50 has been recorded for this entry: `Cc1ccc(-c2noc(CCc3nn[nH]n3)n2)cc1NC(=O)c1cnc2ccccn12`
> 10 µM

What measured IC50 goes with `Cc1ccc(-c2nc(-c3ccc(OC(F)(F)F)cc3)no2)cc1NC(=O)c1cnc2ccccn12` ?
> 10 µM

For the compound shown here, `Cc1ccc(-c2nc(-c3cccnc3)no2)cc1NC(=O)c1cnc2ccccn12` , give the reported IC50.
> 10 µM
